- system_under_test: Recombinant human cathepsin K (Homo sapiens)
- Construct: made in house
- Sequence (P43235 115-329): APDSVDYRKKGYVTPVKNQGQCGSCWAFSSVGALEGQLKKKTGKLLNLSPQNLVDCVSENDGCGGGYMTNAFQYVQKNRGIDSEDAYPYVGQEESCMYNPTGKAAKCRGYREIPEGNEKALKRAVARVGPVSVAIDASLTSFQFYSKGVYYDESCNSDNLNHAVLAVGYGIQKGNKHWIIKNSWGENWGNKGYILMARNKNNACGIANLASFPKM
- procedure_summary: Recombinant cathepsin inhibition, gel-based competition with GB123 probe
- Assay type: biochemical
- condition_info: Table S2; three independent competition gel-based experiments; read-out: CTSK (IC50)
pIC50: −log10 of the molar value.
assay_endpoint: pIC50

CC(C)C[C@H](NC(=O)OCC1c2ccccc2-c2ccccc21)C(=O)N1CCC[C@H]1C(=O)OCC(=O)CNC(=O)[C@H](CC1CCCCC1)N[C@@H](c1ccc(-c2ccc(S(C)(=O)=O)cc2)cc1)C(F)(F)F; < 5.30
CC(C)C[C@H](NC(=O)OCC1c2ccccc2-c2ccccc21)C(=O)N1CCC[C@H]1C(=O)OCC(=O)CNC(=O)[C@H](CCCCNC(=O)OC(C)(C)C)N[C@@H](c1ccc(-c2ccc(S(C)(=O)=O)cc2)cc1)C(F)(F)F; < 5.30

Now for another entry.
Query :: Reported pIC50 for Recombinant human cathepsin K (Homo sapiens), given C#CCNC(=O)[C@H](CC(C)C)N[C@@H](c1ccc(-c2ccc(S(=O)(=O)NC(=O)OC(C)(C)C)cc2)cc1)C(F)(F)F ?
Result :: < 4.70

Data provenance: paper PMC11938014
